Test system: Aspergillus clavatus
protocol_notes: Antifungal activity against Aspergillus clavatus by broth micro-dilution method
Type: functional
reported_endpoint: MIC (µg/mL)
Give bare numbers, in µg/mL.

Examples with their reported MIC follow.
| smiles_repr | quantity_unit | MIC |
| --- | --- | --- |
| O=[N+]([O-])c1cc([N+](=O)[O-])c2cc1Oc1cc(cc(OS(=O)(=O)c3cccc4ccccc34)c1)Oc1cc(c([N+](=O)[O-])cc1[N+](=O)[O-])Oc1cc(cc(OS(=O)(=O)c3cccc4ccccc34)c1)O2 | µg/mL | 50 |
| O=C(COc1cc2cc(c1)Oc1cc(c([N+](=O)[O-])cc1[N+](=O)[O-])Oc1cc(OCC(=O)Nc3cccc4c3C(=O)c3ccccc3C4=O)cc(c1)Oc1cc(c([N+](=O)[O-])cc1[N+](=O)[O-])O2)Nc1cccc2c1C(=O)c1ccccc1C2=O | µg/mL | 25 |
| O=C(COc1cc2cc(c1)Oc1cc(c([N+](=O)[O-])cc1[N+](=O)[O-])Oc1cc(OCC(=O)Nc3nc4ccc([N+](=O)[O-])cc4s3)cc(c1)Oc1cc(c([N+](=O)[O-])cc1[N+](=O)[O-])O2)Nc1nc2ccc([N+](=O)[O-])cc2s1 | µg/mL | 50 |

Could you now consider this next molecule?
Ask: Query: MIC; subject: COc1ccc2nc(NC(=O)COc3cc4cc(c3)Oc3cc(c([N+](=O)[O-])cc3[N+](=O)[O-])Oc3cc(OCC(=O)Nc5nc6ccc(OC)cc6s5)cc(c3)Oc3cc(c([N+](=O)[O-])cc3[N+](=O)[O-])O4)sc2c1
Reply: 12.5

---

Test system: HeLa
protocol_notes: Cytotoxicity against human HeLa cells
Assay type: functional
assay_conditions: read-out: LC50 (the source's name)
reported_endpoint: CC50

| smiles_repr | study_system | CC50 |
| --- | --- | --- |
| O=C(COc1cc2cc(c1)Oc1cc(c([N+](=O)[O-])cc1[N+](=O)[O-])Oc1cc(OCC(=O)N(c3ccccc3)c3ccccc3)cc(c1)Oc1cc(c([N+](=O)[O-])cc1[N+](=O)[O-])O2)N(c1ccccc1)c1ccccc1 | HeLa | > 100 µM |

Ask: Query: CC50; subject: Cc1cccc2sc(NC(=O)COc3cc4cc(c3)Oc3cc(c([N+](=O)[O-])cc3[N+](=O)[O-])Oc3cc(OCC(=O)Nc5nc6c(C)cccc6s5)cc(c3)Oc3cc(c([N+](=O)[O-])cc3[N+](=O)[O-])O4)nc12
Reply: > 100 µM

---

Assign TGI to each entry below.
Tested on: HeLa
protocol_notes: Cytotoxicity against human HeLa cells
Assay type: functional
Numbers only, in µM.

Examples with their reported TGI follow.
| smiles_repr | reported_endpoint | quantity_unit | observed |
| --- | --- | --- | --- |
| O=C(COc1cc2cc(c1)Oc1cc(c([N+](=O)[O-])cc1[N+](=O)[O-])Oc1cc(OCC(=O)Nc3nc4ccc(Cl)cc4s3)cc(c1)Oc1cc(c([N+](=O)[O-])cc1[N+](=O)[O-])O2)Nc1nc2ccc(Cl)cc2s1 | TGI | µM | 28.6 |
| O=[N+]([O-])c1cc([N+](=O)[O-])c2cc1Oc1cc(cc(OS(=O)(=O)c3cccc4cccnc34)c1)Oc1cc(c([N+](=O)[O-])cc1[N+](=O)[O-])Oc1cc(cc(OS(=O)(=O)c3cccc4cccnc34)c1)O2 | TGI | µM | 25.6 |
| O=C(COc1cc2cc(c1)Oc1cc(c([N+](=O)[O-])cc1[N+](=O)[O-])Oc1cc(OCC(=O)Nc3cccc4cccnc34)cc(c1)Oc1cc(c([N+](=O)[O-])cc1[N+](=O)[O-])O2)Nc1cccc2cccnc12 | TGI | µM | 59.2 |

Could you now consider this next molecule?
Ask: Query: TGI; subject: O=C(Oc1cc2cc(c1)Oc1cc(c([N+](=O)[O-])cc1[N+](=O)[O-])Oc1cc(OC(=O)c3cccc4ccccc34)cc(c1)Oc1cc(c([N+](=O)[O-])cc1[N+](=O)[O-])O2)c1cccc2ccccc12
Reply: 32.6
